# Target Entity: Aurora kinase A (Homo sapiens, UniProt O14965)
# Method Description: Inhibition of recombinant human Aurora A (1 to 403 residues) expressed in Escherichia coli using FAM-labeled peptide as substrate preincubated for 10 mins followed by substrate addition and measured after 20 mins in presence of ATP by HTRF assay
log10 IC50 values for the compounds below.
Please be aware that the numbers have been log10-transformed from IC50 in nM.

Known results for compounds:
entry_smiles=C=CC(=O)Nc1ccccc1-c1nc(Nc2cc(C)[nH]n2)c2ccc(N3CCN(C)CC3)cc2n1 assay_value=1.65
entry_smiles=Cc1cc(Nc2nc(-c3ccc(N)cc3)nc3cc(N4CCN(C)CC4)ccc23)n[nH]1 assay_value=0.49
entry_smiles=Cc1cc(Nc2nc(-c3ccc(OS(=O)(=O)F)cc3)nc3cc(N4CCN(C)CC4)ccc23)n[nH]1 assay_value=1.40
entry_smiles=Cc1cc(Nc2nc(-c3ccc(O)cc3)nc3cc(N4CCN(C)CC4)ccc23)n[nH]1 assay_value=0.40
entry_smiles=Cc1cc(Nc2nc(-c3ccccc3O)nc3cc(N4CCN(C)CC4)ccc23)n[nH]1 assay_value=0.74
entry_smiles=CCC(=O)Nc1ccc(-c2nc(Nc3cc(C)[nH]n3)c3ccc(N4CCN(C)CC4)cc3n2)cc1 assay_value=0.70

IN: For C=CC(=O)Nc1cccc(-c2nc(Nc3cc(C)[nH]n3)c3ccc(N4CCOCC4)cc3n2)c1 , what is its reported log10 IC50?
OUT: 0.23

====

# Target Entity: Aurora kinase A (Homo sapiens)
# Method Description: Inhibition of recombinant human Aurora A (1 to 403 residues) expressed in Escherichia coli using STK-substrate 2-biotin as substrate incubated for 15 mins in presence of 7.2uM ATP by HTRF assay
Property Label: pIC50
Keep it numeric: pIC50 is minus log10 of the concentration in mol/L.

IN: For C=CC(=O)Nc1ccc(-c2nc(Nc3cc(C)[nH]n3)c3ccc(N4CCN(C)CC4)cc3n2)cc1 , what is its reported pIC50?
OUT: 8.36

====

# Target Entity: Aurora kinase A (Homo sapiens, UniProt O14965)
# Method Description: Inhibition of recombinant human Aurora A (1 to 403 residues) expressed in Escherichia coli using STK-substrate 2-biotin as substrate incubated for 40 mins in presence of 7.2uM ATP by HTRF assay
Property Label: IC50 (nM)
Please give a number only; it is taken to be in nM.

IN: For C=CC(=O)Nc1ccc(-c2nc(Nc3cc(C)[nH]n3)c3ccc(N4CCN(C)CC4)cc3n2)cc1 , what is its reported IC50?
OUT: 5.19

====

# Target Entity: UniProt O14965
# Sequence (O14965 whole entry): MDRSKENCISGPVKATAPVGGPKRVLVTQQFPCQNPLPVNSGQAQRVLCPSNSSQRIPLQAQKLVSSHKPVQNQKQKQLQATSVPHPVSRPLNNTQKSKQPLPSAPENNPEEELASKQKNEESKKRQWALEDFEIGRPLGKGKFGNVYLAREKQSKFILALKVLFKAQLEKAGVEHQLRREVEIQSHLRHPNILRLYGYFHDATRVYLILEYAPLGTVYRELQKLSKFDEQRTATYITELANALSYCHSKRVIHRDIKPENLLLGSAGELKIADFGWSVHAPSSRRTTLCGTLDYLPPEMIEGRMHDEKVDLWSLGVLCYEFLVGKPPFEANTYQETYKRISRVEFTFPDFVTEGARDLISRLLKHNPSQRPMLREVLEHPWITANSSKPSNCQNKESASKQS
# Method Description: Inhibition of recombinant human Aurora A (1 to 403 residues) expressed in Escherichia coli using STK-substrate 2-biotin as substrate incubated for 15 mins in presence of 0.48 uM ATP by HTRF assay
Property Label: IC50 (nM)
Please give a number only; it is taken to be in nM.

IN: For C=CC(=O)Nc1ccc(-c2nc(Nc3cc(C)[nH]n3)c3ccc(N4CCN(C)CC4)cc3n2)cc1 , what is its reported IC50?
OUT: 1.49

====

# System: MDA-MB-231
# Method Description: Antiproliferative activity against human MDA-MB-231 cells assessed as inhibition of cell proliferation incubated for 48 hrs by CCK-8 assay
# Assay type: functional, cell-based
# Assay Setup: MDA-MB-231, 48 h
Property Label: IC50 (nM)
Please give a number only; it is taken to be in nM.

entry_smiles=C=CC(=O)Nc1cc(-c2nc(Nc3cc(C)[nH]n3)c3ccc(N4CCN(C)CC4)cc3n2)ccc1C target_entity=MDA-MB-231 assay_value=1660
entry_smiles=Cc1cc(Nc2nc(-c3ccc(N)cc3)nc3cc(N4CCN(C)CC4)ccc23)n[nH]1 target_entity=MDA-MB-231 assay_value=640

# input for lookup
IN: For Cc1cc(Nc2nc(-c3ccccc3)nc3cc(N4CCN(C)CC4)ccc23)n[nH]1 , what is its reported IC50?
OUT: 1440

====

# Target Entity: UniProt:O14965
# Method Description: Inhibition of recombinant human Aurora A (1 to 403 residues) expressed in Escherichia coli using FAM-labeled peptide as substrate preincubated for 10 mins followed by substrate addition and measured after 20 mins in presence of ATP by HTRF assay
Property Label: IC50 (nM)
Please give a number only; it is taken to be in nM.

Known results for molecules:
entry_smiles=C=CC(=O)Nc1ccc(-c2nc(Nc3cc(C)[nH]n3)c3ccc(N4CCN(C)CC4)cc3n2)cc1 property_label=IC50 assay_value=1.7
entry_smiles=C=CC(=O)Nc1cccc(-c2nc(Nc3cc(C)[nH]n3)c3ccc(N4CCN(C)CC4)cc3n2)c1 property_label=IC50 assay_value=1.5
entry_smiles=Cc1cc(Nc2nc(-c3cccc(O)c3)nc3cc(N4CCN(C)CC4)ccc23)n[nH]1 property_label=IC50 assay_value=2

IN: For C=CC(=O)Nc1ccc(-c2nc(Nc3cc(C)[nH]n3)c3ccc(N4CCOCC4)cc3n2)cc1 , what is its reported IC50?
OUT: 2.7

IN: For C=CC(=O)Nc1cc(-c2nc(Nc3cc(C)[nH]n3)c3ccc(N4CCN(C)CC4)cc3n2)ccc1C , what is its reported IC50?
OUT: 1.1

IN: For Cc1cc(Nc2nc(-c3ccccc3N)nc3cc(N4CCN(C)CC4)ccc23)n[nH]1 , what is its reported IC50?
OUT: 11

IN: For Cc1cc(Nc2nc(-c3cccc(N)c3)nc3cc(N4CCN(C)CC4)ccc23)n[nH]1 , what is its reported IC50?
OUT: 2.1
